Data origin, for the record: ChEMBL document CHEMBL5728472

molecular target: Histone-binding protein RBBP4/Histone-lysine N-methyltransferase EZH2/Polycomb protein EED/Polycomb protein SUZ12 (Homo sapiens, UniProt O75530+Q09028+Q15022+Q15910); assay: TR-FRET Assay: The TR-FRET method was used to measure the PRC2 enzyme activity. First, the enzyme was mixed with compounds at different concentrations and incubated for 30 min at room temperature. The biotin-labeled histone H3 peptide substrate and the cofactor S-adenosylmethionine (SAM) were added to initiate the enzymatic reaction. After reaction was performed at room temperature for 4 hour, Acceptor and Donor were added and incubated for half an hour. The multifunctional microplate reader EnVision (Perkin Elmer Inc.) was used to detect the fluorescence signal.
Sequence (Q15910 whole entry): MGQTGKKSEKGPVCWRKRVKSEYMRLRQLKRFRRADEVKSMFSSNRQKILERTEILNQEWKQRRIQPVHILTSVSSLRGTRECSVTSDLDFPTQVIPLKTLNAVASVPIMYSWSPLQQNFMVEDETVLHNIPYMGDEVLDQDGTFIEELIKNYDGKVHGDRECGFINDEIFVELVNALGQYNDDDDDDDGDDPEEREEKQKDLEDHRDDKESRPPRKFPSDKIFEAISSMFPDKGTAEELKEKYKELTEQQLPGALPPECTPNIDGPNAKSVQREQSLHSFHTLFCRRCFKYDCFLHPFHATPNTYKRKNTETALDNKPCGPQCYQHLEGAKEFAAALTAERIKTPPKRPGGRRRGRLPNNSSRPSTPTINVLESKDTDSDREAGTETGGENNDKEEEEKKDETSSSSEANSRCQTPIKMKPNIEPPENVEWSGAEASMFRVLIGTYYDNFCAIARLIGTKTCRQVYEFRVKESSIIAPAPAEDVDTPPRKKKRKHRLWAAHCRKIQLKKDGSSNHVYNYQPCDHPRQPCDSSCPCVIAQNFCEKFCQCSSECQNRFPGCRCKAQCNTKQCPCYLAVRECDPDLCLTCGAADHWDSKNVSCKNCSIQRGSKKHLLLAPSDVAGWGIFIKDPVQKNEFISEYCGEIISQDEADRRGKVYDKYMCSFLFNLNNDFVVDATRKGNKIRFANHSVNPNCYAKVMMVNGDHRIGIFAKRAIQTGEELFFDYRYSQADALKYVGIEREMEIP
Sequence (O75530 whole entry): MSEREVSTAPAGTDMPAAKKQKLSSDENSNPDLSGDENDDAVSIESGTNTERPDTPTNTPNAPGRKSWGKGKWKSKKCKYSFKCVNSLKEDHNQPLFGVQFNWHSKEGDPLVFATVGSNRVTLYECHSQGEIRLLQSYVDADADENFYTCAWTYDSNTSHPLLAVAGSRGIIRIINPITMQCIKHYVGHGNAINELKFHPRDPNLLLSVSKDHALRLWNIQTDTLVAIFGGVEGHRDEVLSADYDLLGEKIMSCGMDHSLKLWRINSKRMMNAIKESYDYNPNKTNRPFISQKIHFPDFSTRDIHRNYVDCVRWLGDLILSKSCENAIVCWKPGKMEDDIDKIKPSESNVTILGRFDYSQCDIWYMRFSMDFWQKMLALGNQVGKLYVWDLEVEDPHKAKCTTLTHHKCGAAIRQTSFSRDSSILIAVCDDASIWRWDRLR
Sequence (Q15022 whole entry): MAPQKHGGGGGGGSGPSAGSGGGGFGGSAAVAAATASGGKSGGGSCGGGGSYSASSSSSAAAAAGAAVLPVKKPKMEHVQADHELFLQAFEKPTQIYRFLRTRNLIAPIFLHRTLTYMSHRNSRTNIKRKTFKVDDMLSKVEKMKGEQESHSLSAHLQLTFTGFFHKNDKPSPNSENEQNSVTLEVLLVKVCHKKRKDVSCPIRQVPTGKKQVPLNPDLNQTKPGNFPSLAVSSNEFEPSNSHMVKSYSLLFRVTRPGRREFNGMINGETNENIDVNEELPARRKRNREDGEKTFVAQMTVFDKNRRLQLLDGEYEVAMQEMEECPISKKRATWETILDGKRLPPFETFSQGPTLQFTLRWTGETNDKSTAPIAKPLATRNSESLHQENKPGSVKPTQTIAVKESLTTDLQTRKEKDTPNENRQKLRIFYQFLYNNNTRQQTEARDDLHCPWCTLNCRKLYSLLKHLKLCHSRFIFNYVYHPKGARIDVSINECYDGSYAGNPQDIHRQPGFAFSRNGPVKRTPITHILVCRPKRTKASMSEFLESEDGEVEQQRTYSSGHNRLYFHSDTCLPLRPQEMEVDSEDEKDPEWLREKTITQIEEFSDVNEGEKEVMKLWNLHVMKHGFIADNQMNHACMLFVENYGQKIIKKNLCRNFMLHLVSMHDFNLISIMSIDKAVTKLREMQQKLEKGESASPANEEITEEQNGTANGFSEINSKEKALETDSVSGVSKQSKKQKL
Sequence (Q09028 whole entry): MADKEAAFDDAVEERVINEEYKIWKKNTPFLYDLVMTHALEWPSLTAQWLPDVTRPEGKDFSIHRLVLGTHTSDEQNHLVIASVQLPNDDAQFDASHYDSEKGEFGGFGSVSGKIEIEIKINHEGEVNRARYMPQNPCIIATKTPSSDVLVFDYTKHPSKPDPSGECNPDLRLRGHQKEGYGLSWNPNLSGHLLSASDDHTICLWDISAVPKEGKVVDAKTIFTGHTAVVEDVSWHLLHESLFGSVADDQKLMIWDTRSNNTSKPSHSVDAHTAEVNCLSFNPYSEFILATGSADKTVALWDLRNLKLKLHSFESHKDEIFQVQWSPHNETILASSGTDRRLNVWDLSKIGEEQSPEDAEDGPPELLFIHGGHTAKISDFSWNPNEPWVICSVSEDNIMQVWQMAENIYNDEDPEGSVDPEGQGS
Assignment: determine reported IC50 for the given compounds.

given-smiles | IC50
COC(=O)N1CC=C(c2cnc(NCc3c(F)ccc4c3CCO4)n3cnnc23)CC1 | 2.5 nM

Input: Quick check: IC50 of Fc1ccc2c(c1CNc1ncc(C3=CCNCC3)c3nncn13)CCO2 ?
Output: 218 nM
